Assay procedure: soluble on expression in E. coli; label from the status in PepcDB or PDB records
Observed property: soluble on expression in E. coli

Worked examples follow.
MGSDKIHHHHHHMPFLLFKFPGKRVLGFSFEGRPHRHATGLSRFLDVHGAAYACELGRLSSELVGASEGALLKRLESLYDEILIDEVQDLSAHDWEIVDALLHSSIHIRMVGDIRQSVLATNPRSTKNKQYAYAETVKWFREREQLGRLAIRESVETWRCHPKIAAFSDTIFDASWAFPSTVSRNDAMTDHDGVFLLTKKHVRDYVERFAPQCLRSMAGSGKEFNLDFMNFKVAKGSTFERVLIMPTAGITDFVRKGSSLEPVPAASFYVAVTRAAQSVAMVIDNAGASTLPYWTP not soluble
MGSDKIHHHHHHMGTVPTPAGLAFFQQVQLALRHLDHAVDSAHSSRLSGHVTVGFSPSVAAVIGTHFLKLMRNRYPDIKVRLIEGLSGDLKALVNARQLDVAIIFSDDVDPQWAIQPLVKEQMFLISPKEVLNQYHLESCIDNQTITHSQLKELPLILPSQRHGLRLLLEQKIHQLKVAYEIDGLHLLMESISQLEMATIQPAGASLNSRQDLCLLRVVEPAIERINYLISLSEEELSPATLATKVVIRACVANLINEKRWPGAELINT not soluble
MGAMIVKEVYETAEKIKSMEIRGAGRIARAAAQALMIQAEKSKAKEPEELWNELKVASKILYNTRPTAVSLPNALRYVMHRVKAAYLGGADLETLRFTAINSAKEFIYNSEKAIERIGEIGAKRIEDGDIIMTHCHSKAAISVMKKAFEQGKNIKVIVTETRPKWQGKITAKELASYGIPVIYIVDSAARHYMKMTDKVVMGADSITANGAVINKIGTSLIALTAKEHRVWVMIAAETYKFHPATMLGQLVEIEMRDPTEVIPEEELRTWPKNIEVWNPAFDVTPPEYIDVIITERGIIPPYAAIDILKEEFGWALKYKEPWED soluble
MRPTVVSMGKHFGNLGKMYGEHRFALAPNEQKAYKGFFDQAFVKTFKTYVWDQWYYYIPQTIGAYLLYDWAKKTNVAANRKNPADFANDQ not soluble
MKECKKCKSNEYTNKQLVMMINECGHPLCKNCVDNIFALNSGNCHVCNRVLRKNNFREQIYEDPLIDKETFLRRKLRKIYNLKQDDFENLREFGDYQERFETVVYNLVFETNVNETNAEIQAFEEKHKEQIDRNKRRLDDDQKWIEDQLREERAMKARMTDHMEMDAKEQEAASAVTDTRKIMDELRDSNVAAEVILDRERKKQIEKELEEKEEQEKRKRRNKEMLQTRKRAAENMSFNTVIRVAGRAYVHQPLELVINGPPMPNVSEIEALGYLAHIRQPTAEYIAGGYTPMLGCSRALFEARIDLFSF not soluble
MSLKYKRIVFKVGTSSITHSDGSLSRGKIQTITCQLAALHHAGHELVLVSSGAVAAGFGALGFKKRPVKIADKQASAAVGQGLLMEEYTANLSSDGIVSAQILLSRADFADKRRYQNAGGALSVLLQRRAVPIINENDTVSVEELKIGDNDTLSAQVAAMIQADLLVLLTDIDGLYTGNPNSNPDAVRLDKIEHINHEIIEMAGGSGSANGTGGMLTKIKAATIAAESGVPVYICSSLKPDALAEAAEHQADGSFFVPRAKGLRTQKQWLAFYSESRGSVYVDEGAEHALSEQGKSLLMSGIAGIEGHFSRMDTVTVYSKATKQPLGKGRVLFGSAAAEDLLKSRKAKGVFIHRDDWISITPEIRLLLTEFEGHHHHHH soluble
MANPTVIKLQDGNVMPQLGLGVWQASNEEVITAIQKALEVGYRSIDTAAAYKNEEGVGKALKNASVNREELFITTKLWNDDHKRPREALLDSLKKLQLDYIDLYLMHWPVPAIDHYVEAWKGMIELQKEGLIKSIGVCNFQIHHLQRLIDETGVTPVINQIELHPLMQQRQLHAWNATHKIQTESWSPLAQGGKGVFDQKVIRDLADKYGKTPAQIVIRWHLDSGLVVIPKSVTPSRIAENFDVWDFRLDKDELGEIAKLDQGKRLGPDPDQFGG soluble
MSLDTEAVLAAVEDAPVRETLDSMVASLKSHEDSEFAGAIATFTGRVRERDDPDDTPTQHLEFERYDTVAEQRMATIREQLCERDGVYDVRMHHRTGVVPAGDDVVHVVVLAGHRGDAFRAVSDGIDRLKDEVPLFKKEVTVDDAFWRHDEGHHHHHH soluble
MGHVVKVALLGLGEVGEKFAEHFLEKIQEDRANVEIVAVAHRDLESPVALGFVHSKVPVFKDAMEVVTLGAKVDIIFDLTGDPEVRRKLRIALQESHNQHTVIAPEVVAHLLWNFFGEGELPRSNRTGY soluble
MGSDKIHHHHHHASPGPGEIANTQARHIATFFPGRMTGSPAEMLSADYLRQQFTQMGYQSDIRTFNSRFIYTTKDNRKNWHNVTGSTVIAAHEGRVPQQIIIMAHLDTYAPQSDADVDANLGGLTLQGMDDNAAGLGVMLELAARLKDIPTHYGIRFIATSGEEEGKLGAENLLKRMSDAEKKNTLLVINLDNLIVGDKLYFNSGKNTPEAVRTLTRDRALAIARRYGIAANTNPGRNPSYPKGTGCCNDAEVFDKAGISVLSVEATNWNLGKKDGYQQRVKNASFPNGNSWHDVRLDNQQHIDKALPGRIERRSRDVVRIMLPLVKELAKAEKTS not soluble

Next, consider the following sequence.
Enquiry: Which soluble on expression in E. coli is reported for this sequence? "MKGYSMAKCLTLNTHSWMEVNALKKLFDLAEHIFREKYDIICLQEVNQSISSPLAKSSPNYHPIEGTPALHQDNFALQLVHYLNLQGLHYHWTWAYNHIGYSKYHEGVAILSLKPLKPEDILVSAVDDETDYHTRRALVAETTLNDKVVTVVSLHFSWFEKGFAEEWKRLETTLLEVETPLLLMGDFNNPTGNQGYELVLNSPLALKDSHQIANHVFGDHTIMADIDGWEGNKKALKVDHIFTSEDLSISSSQVVFEGGEAPVVSDHYGLEITMDF"
Return: not soluble

###

Assay procedure: soluble on expression in E. coli; label from the status in PepcDB or PDB records
Observed property: soluble on expression in E. coli

MVMMSKQLTAQAPVDPIVLGKMGSSYGIRGWLRVFSSTEDAESIFDYQPWFIQKAGQWQQVQLESWKHHNQDMIIKLKGVDDRDAANLLTNCEIVVDSSQLPQLEEGDYYWKDLMGCQVVTTEGYDLGKVVDMMETGSNDVLVIKANLKDAFGIKERLVPFLDGQVIKKVDLTTRSIEVDWDPGFLEHHHHHH soluble
TIEARTAQSTPSAPPQKVMCVSMGSTTVRVSWVPPPADSRNGVITQYSVAYEAVDGEDRGRHVVDGISREHSSWDLVGLEKWTEYRVWVRAHTDVGPGPESSPVLVRTDEDVPSGPPRKVE soluble
MKMNVESFNLDHTKVKAPYVRIADRKKGVNGDLIVKYDVRFKQPNRDHMDMPSLHSLEHLVAEIIRNHANYVVDWSPMGCQTGFYLTVLNHDNYTEILEVLEKTMQDVLKAKEVPASNEKQCGWAANHTLEGAQNLARAFLDKRAEWSEVGVGSHHHHHH soluble

###

Assay procedure: soluble on expression in E. coli; label from the status in PepcDB or PDB records
Observed property: soluble on expression in E. coli

DIGCYTLGNAPPLELIDTCLCMGAGISIAGGISRTTKNSKNVAFIGDSTFFHSGIPAVINAVYNNADVTIAVLDNRTTAMTGHQPHPGTGKTALGKPTKLIDIEGILKSCGVEFVKTVSADDFSACKEISKEVIEYNGPSAVVFRGNCVSLVKSDKKYVIDK not soluble
METLHTQEDIIKMLDSLLRPAEPFWNEFYANREKDVPFFENVPDENLVSYIQKKRVSKGKVLELGCGPGRNAIYLANEGFDVTAVDVSIEGINWAKERALAKGVEIEFICDSIFNLEVQNEFDFVYDSGCLHHIPPHRRVNYVDLIKNALKSGGYFGLTCFAAGDLDERNGSEITDWDVYRGWSLQGGLAYSEEKLREIFKGFEVIEIRKMEQIEQPNTMFGESFLWTALFKKNLEHHHHHH not soluble
MNNGTVKWFNAEKGFGFIEQENGGDVFVHFSGIASDGYKTLEEGQKVTFEITEGQRGDQAVNVQTV not soluble

###

Assay procedure: soluble on expression in E. coli; label from the status in PepcDB or PDB records
Observed property: soluble on expression in E. coli

MENKEKIFNAQHPLSNVNARSITYRSGGKSPKSPRRVDEENKTDEELGDALGISHRCDECDEMMKFETWVERQDAILECGHGYCKKCIPNIKKDAHTLTKCPVVAVKCRIPNWYQTGQAAKPSHRKSEAARKEYSTKAKLWNFEYKGRPLVVSLRRDATYGDLETSLSMLLNIDLKTNMILIHLPHSYNGADVNYFMKADDSLTNGPYEKDTKLSHLRHPKIAALSLEVTEKKTPSSETPSKENPKSPGPLDSNK not soluble
MFQVKVRGCMTVYPKVQCISYKIDVDKPTVCELTLCLAPNSDVPADRFSNDLFLVVYNNEQKLVGLTRHVLEERKYSTGMMTVNEGDEVMIVGMGTTTNRKRSTTERVPLIEETNKLSKRFK not soluble
NKSDMNHFMQVLRYLDPIHYLKATNDNGFPMSRMYSNQTVTIGGTITQPLPFKPDGENNVKLQRVVAKLDVNIVEGVENLQKIELCNANVHYRLVPNQSEPIQFYGPVELRRVGTTNQWLGYMPEAIVESTKWWGNTGNAENKPINFFRLTTRGGLVYDVPIITHEGAIPGGQYLPFAKGLLADKPSYTVYRNRHYIYRIKTLPDKIEVKYSICDWNIVTNDTYMGYGYNVGVDEQGNVTITNTMQNCDPHVVRLVAKNGAYFGSQPTDTSVEFAELANGASQTFKVNKDAVAVGSAYLEVYYNPDPNATGVVPDKVFIKK not soluble
